# System: PPARg DBDmut:RXRa IVT, anti-PPARg (DBD mutation: PPARg1 K132A/R137A, NR concentration 270 nM, RXRa partner concentration 90 nM)
# Assay explanation: PBM binding z-score (relative to random genomic background probes); higher = stronger binding; sequences stand for … in GC…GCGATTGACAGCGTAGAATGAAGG
Please enter Criterion met where PBM binding z-score is greater than or equal to 0.006, and Criterion not met where it is lower.

Residue sequence: CCTACTTGGTCAGGAGGTCACACACCGGATATGA
Category label: Criterion met

Residue sequence: TCTATTAGTTGATTAGGGCAGCCGAAACAGCGGA
Category label: Criterion met

Residue sequence: CCTAGTAGGCCAGGGTCACTCAAGCATTTCGCTT
Category label: Criterion not met

Residue sequence: TCTCGGAGGACACGTAAGGTCAGAGCTCGACATC
Category label: Criterion met

Residue sequence: CCTAGCAGGCCAGGGTCACTTAAGCATTTCGCTT
Category label: Criterion not met

Residue sequence: TCTTGTAGATCAACAGGAGGTAAAGAAAGATCGA
Category label: Criterion met

Residue sequence: ACAGACAGGTCAGTGAAGGTAACTCAGCTGGACG
Category label: Criterion not met

Residue sequence: CTGAGTAGGTTATGGGGCATTCAGGCAACGGTGA
Category label: Criterion met

Residue sequence: GATAGAGGGTCAGCTAGAGGCCAGAGTATGGAAA
Category label: Criterion not met

Residue sequence: GGAACGAGGGCATTCGAGTTGGTAGCATGGCGAT
Category label: Criterion not met

Residue sequence: ACTAGCAGGCCAAGGGTCAATCAAGATTAGTCCG
Category label: Criterion not met

Residue sequence: TCTGCTAGGTTAGTTGGTCAGCTAACGAGCTGCC
Category label: Criterion not met

Residue sequence: ATCGAAAGGTGGAAGGTGAGTATACCCACCCGAA
Category label: Criterion met

Residue sequence: TCATATAGGTAAATGGTAGGTGAAAGTCCGATCT
Category label: Criterion met

Residue sequence: GATACAGGGTCAAGGCCACAGTACGCGTATTGAT
Category label: Criterion met

Residue sequence: GCGACTTGGGCATCAGCAGGTTACCATAACTTAA
Category label: Criterion not met

Residue sequence: TTACCAAGGTGAGCTGAGCTCGTTGATCCAACTC
Category label: Criterion met

Residue sequence: ATCTCTAAGTAACAAGTTCAGTGAAAGAGAGGAC
Category label: Criterion met

Residue sequence: CGAACTAGGTGAGAACAGGACAGTGAAGGATGAT
Category label: Criterion met

Residue sequence: TCAAGCAGGCCAGAGGGTCACTCAAGAGGTACGG
Category label: Criterion not met

Residue sequence: CTCGAAAGGTCGGTTGAGGTGAGAATACGGATAA
Category label: Criterion met

Residue sequence: GGAACGAGGGCAAGTTGATTGCAGAGTTTGATGG
Category label: Criterion met

Residue sequence: TCTATTAGATGAAGGGCAACCGACGAGTCCGTTT
Category label: Criterion met

Residue sequence: ACTCGTAGGACAAAGGTCAGAGCTACGCCAGTGA
Category label: Criterion met

Residue sequence: TTACCAAGGTGAGCTGAGGTCGTTGAACCAACTC
Category label: Criterion not met

Residue sequence: TATAGTTGGTCAAAGGTCACACACTCGAAATGCG
Category label: Criterion met
